Target: Human neutrophil elastase (Homo sapiens (Human), UniProt P08246)
Sequence (P08246 30-267): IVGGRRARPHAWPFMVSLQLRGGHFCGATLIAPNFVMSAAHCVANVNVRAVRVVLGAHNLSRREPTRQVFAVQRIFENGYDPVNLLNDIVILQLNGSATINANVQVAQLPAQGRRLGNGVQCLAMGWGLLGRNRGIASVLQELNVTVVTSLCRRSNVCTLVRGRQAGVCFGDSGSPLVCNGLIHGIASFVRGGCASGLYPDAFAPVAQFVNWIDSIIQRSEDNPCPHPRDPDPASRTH
Test: Human Neutrophil Elastase Assay
Format: biochemical
Settings: human neutrophil elastase, substrate MeOSuc-Ala-Ala-Pro-Val-AMC, pH 7.5; read-out: IC50
REPORTED PROPERTY: IC50 (nM)

P: CN1C(=O)N(c2cccc(C(F)(F)F)c2)C2=C(C(=O)CCC2)C1c1ccc(C#N)cc1 (racemic) [Example 20]
Q: CN1C(=O)N(c2cccc(C(F)(F)F)c2)C2=C(C(=O)CCC2)[C@H]1c1ccc(C#N)cc1 [Example 20A]
R: Cn1ncc2c1CN(C(=O)CN1C(=O)N(c3cccc(C(F)(F)F)c3)C3=C(C(=O)CCC3)[C@@H]1c1ccc(C#N)cc1)C2 [Example 35B]
S: COCCCN1C(=O)N(c2cccc(C(F)(F)F)c2)C2=C(C(=O)CCC2)C1c1ccc(C#N)cc1S(C)(=O)=O (stereo not shown) [Example 58.4]
*Q* Sort the items above by IC50, starting with the smallest value. Provide the labels, sequenced as the question asks.
*A* Q, P, S, R
